Documented Papp A→B across a set of compounds
# experiment_notes: Assay C: Permeability in CACO-2 cells
# Format: in vitro ADME
# experimental_conditions: human, pH 7.2; Assay C, CACO-2 cells
Please give a number only; it is taken to be in ×10⁻⁶ cm/s.

Cc1nn(C)cc1-c1cc(C#N)c(N2CCC(F)(c3nncn3C)CC2)c(-c2ccc(F)nc2)c1; 5
Cn1cc(-c2ccc(-c3ccc(F)nc3)c(N3CCC(c4nncn4C)CC3)c2C#N)cn1 [Compound 35, reference compound]; 4.9
Cn1cnnc1C1(F)CCN(c2c(C#N)cc(C(C)(C)O)cc2-c2ccc(F)nc2)CC1; 4.2

Here is another compound to look at.
input: Which Papp A→B is listed for `Cn1cc(-c2cc(C#N)c(N3CCC(F)(c4nncn4C)CC3)c(-c3ccc(F)nc3)c2)cn1` ?
output: 5.4

Entry source: patent US20250250252A1
